- Tested on: KB
- Assay Comment: Cytotoxicity against human KB cells
- Assay type: functional
- Condition Parameters: read-out: ED50 (the source's name)
Quick reference: EC50 of the listed items.
Give just the number in µg/mL; leave the unit off.

Record excerpt, results attached:
O=c1ccc2c3c(cc[n+]2[O-])c2ccc(O)cc2n13    4.8
C=C1[C@@H](O)[C@@]2(O)OC[C@]34[C@H]2[C@@]2(C)[C@H](O)C(=O)C=C(C)[C@@H]2C[C@H]3OC(=O)[C@H](O)[C@@]14O [EURYCOMANONE]    1.9
O=c1ccc2nccc3c4ccc(O)cc4n1c23    2

// next item, EC50 requested
Asked: Name the recorded EC50 for COc1ccc2c3cc[n+]([O-])c4ccc(=O)n(c2c1)c34 .
Given back: 3.8
